Entry source: ChEMBL document CHEMBL1212927

- Tested on: Streptococcus pyogenes
- test_summary: Antibacterial activity against inducible macrolide-lincosamide-streptogramin B-resistant Streptococcus pyogenes B0543 by agar microdilution method
- Assay type: functional
measured_attribute: MIC

CC[C@H]1OC(=O)[C@H](C)C(=O)[C@H](C)[C@@H](O[C@@H]2O[C@H](C)C[C@H](N(C)C)[C@H]2O)[C@](C)(OCC(O)CN2CCN(c3ccc4ncccc4c3)CC2)C[C@@H](C)NC(=O)[C@H](C)[C@@H](O)[C@]1(C)O (stereo partly drawn) = 0.25 µg/mL
CC[C@H]1OC(=O)[C@H](C)C(=O)[C@H](C)[C@@H](O[C@@H]2O[C@H](C)C[C@H]([N+](C)(C)[O-])[C@H]2O)[C@](C)(OCC2CO2)C[C@@H](C)NC(=O)[C@H](C)[C@@H](O)[C@]1(C)O (stereo partly drawn) = > 64 µg/mL
CC[C@H]1OC(=O)[C@H](C)C(=O)[C@H](C)[C@@H](O[C@@H]2O[C@H](C)C[C@H](N(C)C)[C@H]2O)[C@](C)(OC)C[C@@H](C)C(=O)[C@H](C)[C@H]2N(CCCCn3cnc(-c4cccnc4)c3)C(=O)O[C@]12C = ≤ 0.06 µg/mL
CC[C@H]1OC(=O)[C@H](C)C(=O)[C@H](C)[C@@H](O[C@@H]2O[C@H](C)C[C@H](N(C)C)[C@H]2O)[C@](C)(OCC(O)CNCc2ccc3ncccc3c2)C[C@@H](C)NC(=O)[C@H](C)[C@@H](O)[C@]1(C)O (stereo partly drawn) = 2 µg/mL
CC[C@H]1OC(=O)[C@H](C)C(=O)[C@H](C)[C@@H](O[C@@H]2O[C@H](C)C[C@H](N(C)C)[C@H]2O)[C@](C)(OCC(O)CNCCCc2ccccc2)C[C@@H](C)NC(=O)[C@H](C)[C@@H](O)[C@]1(C)O (stereo partly drawn) = 1 µg/mL
CC[C@H]1OC(=O)[C@H](C)C(=O)[C@H](C)[C@@H](O[C@@H]2O[C@H](C)C[C@H](N(C)C)[C@H]2O)[C@](C)(OCC(O)CNCCc2ccccn2)C[C@@H](C)NC(=O)[C@H](C)[C@@H](O)[C@]1(C)O (mixture of isomers) = 4 µg/mL
CC[C@H]1OC(=O)[C@H](C)C(=O)[C@H](C)[C@@H](O[C@@H]2O[C@H](C)C[C@H](N(C)C)[C@H]2O)[C@](C)(OCC=Cc2cnc3ccccc3c2)C[C@@H](C)C(=O)[C@H](C)[C@H]2NC(=O)O[C@@]21C = ≤ 0.06 µg/mL

Proceed to the following item.
# input Request the reported MIC associated with CC[C@H]1OC(=O)[C@H](C)C(=O)[C@H](C)[C@@H](O[C@@H]2O[C@H](C)C[C@H](N(C)C)[C@H]2O)[C@](C)(OCC(O)CNCCc2ccccc2)C[C@@H](C)NC(=O)[C@H](C)[C@@H](O)[C@]1(C)O (mixture of isomers)
# output 1 µg/mL

---

- Tested on: Staphylococcus aureus
- test_summary: Antibacterial activity against inducible macrolide-lincosamide-streptogramin B-resistant Staphylococcus aureus B0538 by agar microdilution method
- Format: functional
measured_attribute: MIC (µg/mL)
Your answer should be a plain number; it is taken to be in µg/mL.

Examples from the recorded data:
CC[C@H]1OC(=O)[C@H](C)C(=O)[C@H](C)[C@@H](O[C@@H]2O[C@H](C)C[C@H](N(C)C)[C@H]2O)[C@](C)(OCC(O)CN2CCN(c3ccc(F)cc3)CC2)C[C@@H](C)NC(=O)[C@H](C)[C@@H](O)[C@]1(C)O (some centres undefined) = 16
CC[C@H]1OC(=O)[C@H](C)C(=O)[C@H](C)[C@@H](O[C@@H]2O[C@H](C)C[C@H](N(C)C)[C@H]2O)[C@](C)(OCC(O)CNCCCc2ccccc2)C[C@@H](C)NC(=O)[C@H](C)[C@@H](O)[C@]1(C)O (some centres undefined) = 8
CC[C@H]1OC(=O)[C@H](C)C(=O)[C@H](C)[C@@H](O[C@@H]2O[C@H](C)C[C@H](N(C)C)[C@H]2O)[C@](C)(OCC(O)CNCCCc2cccnc2)C[C@@H](C)NC(=O)[C@H](C)[C@@H](O)[C@]1(C)O (some centres undefined) = 4

Proceed to the following item.
# input Request the reported MIC associated with CC[C@H]1OC(=O)[C@H](C)C(=O)[C@H](C)[C@@H](O[C@@H]2O[C@H](C)C[C@H](N(C)C)[C@H]2O)[C@](C)(OCC(O)CNCCc2ccccc2)C[C@@H](C)NC(=O)[C@H](C)[C@@H](O)[C@]1(C)O (mixture of isomers)
# output 16
